# Method description: chemical genetic growth profiling, strain panel (AID 1159580);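 further: tested at 20 µM; growth read once vehicle control cultures reached saturation at 30 °C; 1 = growth at the plate median or of vehicle wells; lower values mean less growth of the strain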
# Experimental setup: S. cerevisiae deletion strains, growth OD, locus YLR268W, strain sec22, active compounds read low
Screen size: about 5,500 compounds; about 2,000 (36%) were called active. About 18% were inconclusive and are not listed. The list shows a part of the results.
Result type: normalized growth
Enter the number alone.

These recorded examples may help you get a feel for the data.
Q: Report normalized growth for O=C(O)C1=CCCNC1 please.
Ans: 0.975

Q: Try COc1ccc(C2Sc3ccccc3N(CCN(C)C)C(=O)C2OC(C)=O)cc1 (configuration not stated) next.
Ans: 1.03

Q: Now this one: CN(C)CCCN1c2ccccc2Sc2ccc(C(F)(F)F)cc21
Ans: 1.05

Q: Now consider COc1cc(C/C=C/c2ccccc2)c(OC)cc1O and answer again.
Ans: 1

Q: Do the same for CC(=O)Oc1cccc(O)c1 please
Ans: 1.02

Q: Next up: CN(C)CCCN1c2ccccc2Sc2ccc(Cl)cc21
Ans: 1.01

Q: Follow-up entry: NNCc1cccc(O)c1
Ans: 1.01

Q: Request: CC[N+](C)(C)c1cccc(O)c1
Ans: 0.917

---
Q: For CC(=O)O[C@H]1CC[C@@]2(C)C(=CC(=O)C3C4CCC(C(C)CCCC(C)C)[C@@]4(C)CCC32)C1 (some centres not stated) , what is its reported normalized growth?
Ans: 1.02

Q: Queued: Oc1cccc(O)c1
Ans: 0.974

Q: Next entry: CC(=O)Oc1ccc(C(c2ccc(OC(C)=O)cc2)c2ccccn2)cc1
Ans: 0.992

Q: What about CC(C)CCCC(C)[C@H]1CCC2C3C(=O)C=C4C[C@@H](O)CC[C@]4(C)C3CC[C@@]21C (some centres not stated) ?
Ans: 1.07

---

# Method description: chemical genetic growth profiling, strain panel (AID 1159580);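 further: tested at 20 µM; growth read once vehicle control cultures reached saturation at 30 °C; 1 = growth at the plate median or of vehicle wells; lower values mean less growth of the strain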
# Experimental setup: S. cerevisiae deletion strains, growth OD, locus YPL106C, strain sse1, active compounds read low
Out of some 5,500 compounds screened, about 2,000 (36%) were called active. Inconclusive results (about 18%) are left out. The list shows a part of the results.
Result type: normalized growth

Illustrative cases are given below, each with its answer.
Q: Quick check: normalized growth of Cc1nc(N)cc(C[n+]2csc(CCO)c2C)n1 ?
Ans: 0.953 (inactive)

Q: Moving on to the next compound: COc1ccccc1OCC(O)CO (configuration not stated)
Ans: 1.01 (inactive)

Q: Again, but for C[n+]1ccccc1/C=N/O
Ans: 0.99 (inactive)

Q: Continue with CC12CCC(=O)C=C1CCC1C2[C@@H](O)CC2(C)C1CC[C@]2(O)C(=O)COP(=O)(O)O (some centres not stated)
Ans: 0.969 (inactive)

Q: Now the same for CC(Cc1cccc(C(F)(F)F)c1)NCCOC(=O)c1ccccc1 (configuration not stated)
Ans: 0.975 (inactive)

Next:
Q: Entry CC[N+](C)(C)c1cccc(O)c1 has what normalized growth?
Ans: 1.02 (inactive)

Q: What do you have for O=C(O)C1=CCCNC1 ?
Ans: 1.01 (inactive)

Q: Nc1ccc(C(=O)O)cc1 ?
Ans: 1.03 (inactive)

Q: What about this compound? Cc1cc(=O)[nH]c(=S)[nH]1
Ans: 0.919 (inactive)

Q: And then CC(=O)O[C@H]1CCC2(C)C3=C(CCC2C1(C)C)[C@@]1(C)CC[C@@H](C(C)CCC=C(C)C)[C@]1(C)CC3 (some centres not stated) , what is it?
Ans: 1.09 (inactive)

Q: # iterate: Oc1cccc(O)c1
Ans: 0.926 (inactive)

Q: For CC(C)=CCCC(C)[C@@H]1CC[C@]2(C)C3=C(CC[C@@]12C)C1(C)CC[C@H](O)C(C)(C)C1CC3 (some centres not stated) then?
Ans: 1.26 [resistant] (active)
